Listed next: entries and their corresponding pIC50.
Target: [35S]-TBPS binding, rat brain cortical membranes (GABA receptor complex)
Assay: Steroid inhibition of [35S]-TBPS binding
Settings: 3 nM [35S]-TBPS, 5 μM GABA
pIC50: −log10 of the molar value.

INSERT INTO assay_data (molecule, experimental_readout, endpoint_value) VALUES
  ('CCOC[C@@]1(O)CC[C@H]2[C@@H](CC[C@@H]3[C@@H]2CC[C@]2(C)[C@@H](C(=O)Cn4cccn4)CC[C@@H]32)C1 [SB-8]', 'pIC50', '≤ 6.30'),
  ('COC[C@@]1(O)CC[C@H]2[C@@H](CC[C@@H]3[C@@H]2CC[C@]2(C)[C@@H](C(=O)Cn4cccn4)CC[C@@H]32)C1 [SB-4]', 'pIC50', '6.30 to 7.00'),
  ('C[C@@]1(O)CC[C@H]2[C@H](CC[C@@H]3[C@@H]2CC[C@]2(C)[C@@H](C(=O)Cn4cc(Br)cn4)CC[C@@H]32)C1 [SA-9]', 'pIC50', '7.30 to 8.00'),
  ('C[C@]12CC[C@H]3[C@@H](CC[C@H]4C[C@@](O)(CF)CC[C@@H]43)[C@@H]1CC[C@@H]2C(=O)Cn1cc(C#N)cn1 [SB-22]', 'pIC50', '6.30 to 7.00'),
  ('C[C@@]1(O)CC[C@H]2[C@H](CC[C@@H]3[C@@H]2CC[C@]2(C)[C@@H](C(=O)Cn4cccn4)CC[C@@H]32)C1 [SA-13]', 'pIC50', '7.30 to 8.00');

Reported pIC50 for C[C@]12CC[C@H]3[C@@H](CC[C@@H]4C[C@@](O)(C(F)F)CC[C@@H]43)[C@@H]1CC[C@@H]2C(=O)Cn1cccn1 [SA-27] was 6.30 to 7.00

Reported pIC50 for C[C@]12CC[C@H]3[C@@H](CC[C@@H]4C[C@@](O)(CF)CC[C@@H]43)[C@@H]1CC[C@@H]2C(=O)Cn1cccn1 [SA-31] was 6.30 to 7.00

Reported pIC50 for C[C@@]1(O)CC[C@H]2[C@H](CC[C@@H]3[C@@H]2CC[C@]2(C)[C@@H](C(=O)Cn4cc(C#N)cn4)CC[C@@H]32)C1 [SA-4] was > 8.00

Reported pIC50 for C[C@@]1(O)CC[C@H]2[C@@H](CC[C@@H]3[C@@H]2CC[C@]2(C)[C@@H](C(=O)Cn4cc(S(C)(=O)=O)cn4)CC[C@@H]32)C1 [SB-3] was ≤ 6.30

----------
Biological target: GABAA receptor α1β2γ2 (Homo sapiens, UniProt P14867+P47870)
Construct: expressed in transfected cells
Sequence (P14867 28-456): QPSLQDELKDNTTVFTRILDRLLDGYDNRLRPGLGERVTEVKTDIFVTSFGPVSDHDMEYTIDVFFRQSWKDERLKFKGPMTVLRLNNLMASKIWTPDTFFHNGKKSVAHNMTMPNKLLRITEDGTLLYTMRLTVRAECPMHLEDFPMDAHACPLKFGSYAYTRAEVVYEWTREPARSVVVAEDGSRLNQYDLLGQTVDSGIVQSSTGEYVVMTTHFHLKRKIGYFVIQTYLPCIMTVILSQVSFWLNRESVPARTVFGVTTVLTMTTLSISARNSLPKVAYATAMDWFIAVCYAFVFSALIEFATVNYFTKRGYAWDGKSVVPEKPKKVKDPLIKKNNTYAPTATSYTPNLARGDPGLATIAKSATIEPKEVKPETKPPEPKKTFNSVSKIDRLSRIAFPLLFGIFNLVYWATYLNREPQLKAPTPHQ
Sequence (P47870 25-512 limits assumed): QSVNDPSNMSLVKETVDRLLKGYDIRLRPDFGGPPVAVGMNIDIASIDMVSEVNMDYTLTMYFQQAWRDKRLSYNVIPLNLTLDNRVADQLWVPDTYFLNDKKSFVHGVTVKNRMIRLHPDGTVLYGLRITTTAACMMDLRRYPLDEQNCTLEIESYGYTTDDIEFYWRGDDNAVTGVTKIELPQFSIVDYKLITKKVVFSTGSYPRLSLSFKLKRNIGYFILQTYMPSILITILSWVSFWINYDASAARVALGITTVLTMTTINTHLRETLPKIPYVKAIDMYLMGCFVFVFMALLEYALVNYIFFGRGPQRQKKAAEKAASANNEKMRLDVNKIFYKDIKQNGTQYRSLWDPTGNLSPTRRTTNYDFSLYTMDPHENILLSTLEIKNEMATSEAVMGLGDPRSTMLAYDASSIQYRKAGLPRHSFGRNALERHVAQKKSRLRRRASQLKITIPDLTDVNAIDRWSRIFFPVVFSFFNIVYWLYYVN
Sequence (P18507 40-475 partner): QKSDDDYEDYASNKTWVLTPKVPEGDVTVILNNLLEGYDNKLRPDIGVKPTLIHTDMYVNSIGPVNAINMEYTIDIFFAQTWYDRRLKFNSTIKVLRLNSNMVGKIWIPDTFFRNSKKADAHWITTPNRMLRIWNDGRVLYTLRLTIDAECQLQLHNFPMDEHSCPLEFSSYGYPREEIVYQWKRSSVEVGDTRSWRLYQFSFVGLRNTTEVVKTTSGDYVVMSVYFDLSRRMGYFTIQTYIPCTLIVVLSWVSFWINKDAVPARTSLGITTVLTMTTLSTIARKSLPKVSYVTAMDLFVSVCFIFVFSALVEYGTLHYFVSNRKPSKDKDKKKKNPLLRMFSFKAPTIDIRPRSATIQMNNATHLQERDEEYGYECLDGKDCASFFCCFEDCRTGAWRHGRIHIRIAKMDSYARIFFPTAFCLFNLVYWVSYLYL
Assay: Patch clamp electrophysiology, Qpatch in Ltk cells
Type: cell-based
Conditions: 10 μM test article, GABA EC20 2 μM, read-out: GABA (α1β2γ2) Qpatch in Ltk, % efficacy at 10 μM
Listed next: entries and their corresponding Emax at 10 µM.

Examples from the recorded data:
INSERT INTO assay_data (molecule, endpoint_value) VALUES
  ('C[C@@]1(O)CC[C@H]2[C@H](CC[C@@H]3[C@@H]2CC[C@]2(C)[C@@H](C(=O)Cn4nccc4C(F)(F)F)CC[C@@H]32)C1 [SA-2]', '> 500%'),
  ('C[C@@]1(O)CC[C@H]2[C@@H](CC[C@@H]3[C@@H]2CC[C@]2(C)[C@@H](C(=O)Cn4cc(C#N)cn4)CC[C@@H]32)C1 [SB-2]', '100 to 500%'),
  ('C[C@@]1(O)CC[C@H]2[C@H](CC[C@@H]3[C@@H]2CC[C@]2(C)[C@@H](C(=O)Cn4cccn4)CC[C@@H]32)C1 [SA-13]', '100 to 500%');

Reported GABAA receptor α1β2γ2 (Homo sapiens, UniProt P14867+P47870) Emax at 10 µM for item C[C@]12CC[C@H]3[C@@H](CC[C@@H]4C[C@@](O)(CF)CC[C@@H]43)[C@@H]1CC[C@@H]2C(=O)Cn1cccn1 [SA-31] was 100 to 500%

Reported GABAA receptor α1β2γ2 (Homo sapiens, UniProt P14867+P47870) Emax at 10 µM for item CSc1cnn(CC(=O)[C@H]2CC[C@H]3[C@@H]4CC[C@@H]5C[C@](C)(O)CC[C@@H]5[C@H]4CC[C@]23C)c1 [SA-18] was > 500%

Reported GABAA receptor α1β2γ2 (Homo sapiens, UniProt P14867+P47870) Emax at 10 µM for item Cc1cnn(CC(=O)[C@H]2CC[C@H]3[C@@H]4C[C@@H](F)[C@H]5C[C@](C)(O)CC[C@@H]5[C@H]4CC[C@]23C)c1 [SB-12] was 100 to 500%
